Target: RNase A (Bos taurus)
Sequence (P61823 27-150): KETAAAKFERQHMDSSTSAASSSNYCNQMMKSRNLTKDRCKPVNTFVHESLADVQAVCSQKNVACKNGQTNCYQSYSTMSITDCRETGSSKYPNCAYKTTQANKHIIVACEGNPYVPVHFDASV
Assay type: biochemical, bovine
Details: 0.2M Hepes pH 7.0, 75 μM CpG, 25° C.; read-out: Ki at indicated pH, pH 7
EXPERIMENTAL_ENDPOINT: pKi
Quick note: pKi means taking -log10 of the concentration in moles per liter.

Nc1ncnc2c1ncn2[C@@H]1O[C@H](COP(=O)(O)OP(=O)(O)O[C@H]2C[C@H](n3ccc(=O)[nH]c3=O)O[C@@H]2COP(=O)(O)O)[C@@H](OP(=O)(O)O)[C@H]1O | 6.68
Cc1cn([C@H]2C[C@H](OP(=O)(O)OP(=O)(O)OC[C@H]3O[C@@H](n4cnc5c(N)ncnc54)[C@H](O)[C@@H]3OP(=O)(O)O)[C@@H](COP(=O)(O)O)O2)c(=O)[nH]c1=O | 6.74
Nc1ncnc2c1ncn2[C@@H]1O[C@H](COP(=O)(O)OP(=O)(O)O[C@H]2C[C@H](n3ccc(=O)[nH]c3=O)O[C@@H]2CO)[C@@H](OP(=O)(O)O)[C@H]1O | 5.96

Please turn your attention to the following entry.
Challenge: Recall the reported pKi of Nc1ncnc2c1ncn2[C@@H]1O[C@H](COP(=O)(O)OP(=O)(O)O)[C@@H](OP(=O)(O)O)[C@H]1O [ppAp, 5'-diphosphoadenosine-3'-phosphate] on RNase A (Bos taurus) and write it down.
Response given: 5.89
